- system: human ferroportin (Homo sapiens)
- Construct: luciferase reporter (read with the Nano-Glo Luciferase Assay System); expressed in transfected cells; host or cells: CHO cells, stably transfected, expression induced with doxycycline
- method_summary: Biological in-vitro ferroportin internalization assay (luciferase reporter)
- Assay type: cell-based
- assay_context: average pEC50; stably-transfected CHO cell line expressing human ferroportin tagged to a luciferase reporter; 6 h incubation with test compound
measurement_name: pEC50

- molecule: "CN(CC(=O)NC(C)(C)CO)c1nc(-c2cn(C)cn2)nc2c1CCC2 [Compound 143]"
  system: "human ferroportin (Homo sapiens)"
  obs_value: 7.2
- molecule: "CN(CC(=O)Nc1ccc2c(c1)OC(F)(F)O2)c1nc(-c2ccccn2)nc2c1CCC2 [Compound 32]"
  system: "human ferroportin (Homo sapiens)"
  obs_value: 7.2
- molecule: "C[C@H](C(=O)NC(C)(C)C)N(C)c1nc(-c2cc(OCCN(C)C)ccn2)nc2c1CCC2 [Compound 408]"
  system: "human ferroportin (Homo sapiens)"
  obs_value: 8.5
- molecule: "CN(CC(=O)NC12CC(C1)C2)c1nc(-c2cc(OCC(C)(C)O)ccn2)nc2c1CCC2 [Compound 383]"
  system: "human ferroportin (Homo sapiens)"
  obs_value: 7.8
- molecule: "CN(CC(=O)Nc1cnn(C)c1)c1nc(-c2cc(OCCF)ccn2)nc2c1CCC2 [Compound 243]"
  system: "human ferroportin (Homo sapiens)"
  obs_value: 7.4
- molecule: "CN(CC(=O)Nc1ccn(C)n1)c1nc(-c2cc3ccccc3cn2)nc2c1CCC2 [Compound 237]"
  system: "human ferroportin (Homo sapiens)"
  obs_value: 7.1
- molecule: "CN(CC(=O)Nc1cnn(C)c1)c1nc(-c2cc(OC(F)(F)F)ccn2)nc2c1CCC2 [Compound 231]"
  system: "human ferroportin (Homo sapiens)"
  obs_value: 6.2
- molecule: "COc1cccc2c1CCN(c1nc(-c3ccccn3)nc3c1CCC3)CC2 [Compound 3]"
  system: "human ferroportin (Homo sapiens)"
  obs_value: 6.8

###

- system: human ferroportin (Homo sapiens, UniProt Q9NP59)
- Construct: luciferase reporter (read with the Nano-Glo Luciferase Assay System); expressed in transfected cells; host or cells: CHO cells, stably transfected, expression induced with doxycycline
- method_summary: Biological in-vitro ferroportin internalization assay (luciferase reporter)
- Type: cell-based
- assay_context: average pEC50; stably-transfected CHO cell line expressing human ferroportin tagged to a luciferase reporter; 6 h incubation with test compound
measurement_name: pEC50

- compound: "CN(CC(=O)NC(C)(C)C)c1nc(-c2cn3ccccc3n2)nc2c1CCC2"
  system: "human ferroportin (Homo sapiens, UniProt Q9NP59)"
  obs_value: 6.7
- compound: "CN(CC(=O)N1CCCCC1)c1nc(-c2cc(O[C@@H]3CCOC3)ccn2)nc2c1CCC2"
  system: "human ferroportin (Homo sapiens, UniProt Q9NP59)"
  obs_value: 7.6
- compound: "COc1ccnc(-c2nc3c(c(N(C)CC(=O)N[C@@H]4CCOC4)n2)CCC3)c1"
  system: "human ferroportin (Homo sapiens, UniProt Q9NP59)"
  obs_value: 7.5
- compound: "COc1ccnc(-c2nc3c(c(N(C)CC(=O)Nc4cncnc4)n2)CCC3)c1"
  system: "human ferroportin (Homo sapiens, UniProt Q9NP59)"
  obs_value: 7.2

###

- system: human ferroportin (Homo sapiens)
- Construct: luciferase reporter (read with the Nano-Glo Luciferase Assay System); expressed in transfected cells; host or cells: CHO cells, stably transfected, expression induced with doxycycline
- Sequence (Q9NP59 1-571): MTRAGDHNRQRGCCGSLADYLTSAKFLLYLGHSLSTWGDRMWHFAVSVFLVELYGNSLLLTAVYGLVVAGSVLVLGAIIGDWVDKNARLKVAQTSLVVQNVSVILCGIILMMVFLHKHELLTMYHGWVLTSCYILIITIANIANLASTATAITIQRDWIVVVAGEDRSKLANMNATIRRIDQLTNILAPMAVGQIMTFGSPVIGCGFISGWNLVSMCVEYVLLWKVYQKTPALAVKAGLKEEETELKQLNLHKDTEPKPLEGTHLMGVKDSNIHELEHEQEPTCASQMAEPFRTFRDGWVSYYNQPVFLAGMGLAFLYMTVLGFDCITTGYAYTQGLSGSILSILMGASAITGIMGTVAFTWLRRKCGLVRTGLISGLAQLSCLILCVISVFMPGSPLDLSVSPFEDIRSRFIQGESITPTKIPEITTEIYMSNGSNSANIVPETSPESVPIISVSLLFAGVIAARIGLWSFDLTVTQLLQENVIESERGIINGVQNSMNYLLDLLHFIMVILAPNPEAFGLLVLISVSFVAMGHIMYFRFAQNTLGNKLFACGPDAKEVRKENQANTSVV
- method_summary: Biological in-vitro ferroportin internalization assay (luciferase reporter)
- Format: cell-based
- assay_context: average pEC50; stably-transfected CHO cell line expressing human ferroportin tagged to a luciferase reporter; 6 h incubation with test compound
measurement_name: pEC50

- molecule: "CN(Cc1nc2ccccc2o1)c1nc(-c2ccccn2)nc2c1CCC2 [Compound 82]"
  obs_value: 6.8
- molecule: "CN(c1nc(-c2ccccn2)nc2c1CCC2)[C@H]1CCN(c2ccc(F)cc2)C1=O [Compound 206]"
  obs_value: 6.9
- molecule: "Cc1cnc(NC(=O)CN(C)c2nc(-c3cc(OCCO)ccn3)nc3c2CCC3)cn1 [Compound 284]"
  obs_value: 7.7
- molecule: "Cc1ccnc(-c2nc3c(c(N(C)CC(=O)NC(C)(C)CO)n2)CCC3)c1 [Compound 62]"
  obs_value: 7.6
- molecule: "CN(CC(=O)NC(C)(C)C)c1nc(-c2cc(OC[C@@H]3COC(C)(C)O3)ccn2)nc2c1CCC2 [Compound 414]"
  obs_value: 8.3
- molecule: "Cc1ccc(NC(=O)CN(C)c2nc(-c3cc4cc(CO)ccc4cn3)nc3c2CCC3)cn1 [Compound 297]"
  obs_value: 7.5
- molecule: "CN(CC(=O)NC(C)(C)C)c1nc(-c2ccc(CCO)cn2)nc2c1CCC2 [Compound 43]"
  obs_value: 7
- molecule: "CN(CC(=O)NC(C)(C)C)c1nc(-c2cc3ccccc3cn2)nc2c1CCC2 [Compound 165]"
  obs_value: 7.4

###

- system: human ferroportin (Homo sapiens)
- Construct: luciferase reporter (read with the Nano-Glo Luciferase Assay System); expressed in transfected cells; host or cells: CHO cells, stably transfected, expression induced with doxycycline
- Sequence (Q9NP59 1-571): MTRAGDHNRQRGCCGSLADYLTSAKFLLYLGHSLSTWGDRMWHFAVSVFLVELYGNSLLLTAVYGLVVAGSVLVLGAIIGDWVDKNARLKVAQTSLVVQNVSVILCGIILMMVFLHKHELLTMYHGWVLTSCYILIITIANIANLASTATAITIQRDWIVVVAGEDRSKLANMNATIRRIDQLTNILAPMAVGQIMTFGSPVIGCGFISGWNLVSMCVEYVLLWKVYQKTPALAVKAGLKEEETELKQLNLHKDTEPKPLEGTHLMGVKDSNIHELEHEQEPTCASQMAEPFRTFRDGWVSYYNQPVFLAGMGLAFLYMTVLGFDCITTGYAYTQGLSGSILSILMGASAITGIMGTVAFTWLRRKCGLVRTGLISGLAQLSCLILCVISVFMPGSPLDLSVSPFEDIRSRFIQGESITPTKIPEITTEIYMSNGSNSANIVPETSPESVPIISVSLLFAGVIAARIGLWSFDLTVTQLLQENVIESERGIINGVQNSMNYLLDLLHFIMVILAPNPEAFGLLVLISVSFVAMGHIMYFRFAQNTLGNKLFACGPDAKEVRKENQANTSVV
- method_summary: Biological in-vitro ferroportin internalization assay (luciferase reporter)
- Type: cell-based
- assay_context: average pEC50; stably-transfected CHO cell line expressing human ferroportin tagged to a luciferase reporter; 6 h incubation with test compound
measurement_name: pEC50

- molecule: "CN(CC(=O)NC1COC1)c1nc(-c2cc(OCCO)ccn2)nc2c1CCC2"
  pEC50: 7.2
- molecule: "CC(C)NC(=O)CN(C)c1nc(-c2cc(OCCN(C)C)ccn2)nc2c1CC(C)(C)C2"
  pEC50: 7.7
- molecule: "CN(CC(=O)Nc1cnn(C)c1)c1nc(-c2cc3ccccc3cn2)nc2c1CCC2"
  pEC50: 7
- molecule: "CN(c1nc(-c2ccccn2)nc2c1CCC2)[C@H]1CCN(c2ccccc2)C1=O"
  pEC50: 7.1
- molecule: "COc1ccnc(-c2nc3c(c(N(C)CC(=O)N(C)C)n2)CCC3)c1"
  pEC50: 7.3
- molecule: "COc1ccc(N2CCCN(c3nc(-c4ccccn4)nc4c3CCC4)CC2=O)cc1"
  pEC50: 6.7
- molecule: "Cc1ccnc(-c2nc3c(c(N4CCCO[C@H]5CCC[C@@H]54)n2)CCC3)c1"
  pEC50: 7.2
- molecule: "CN(CC(=O)NC(C)(C)C)c1nc(-c2cn(C)cn2)nc2c1CCC2"
  pEC50: 7.5
- molecule: "CN(C)CCOc1ccnc(-c2cc(N(C)CC(=O)NC(C)(C)C)c3c(n2)CCC3)c1"
  pEC50: 7.4
- molecule: "CN1CC[C@H](Oc2ccnc(-c3nc4c(c(N(C)CC(=O)NC(C)(C)C)n3)CCC4)c2)C1"
  pEC50: 7.7
- molecule: "CC[C@@](C)(O)COc1ccnc(-c2nc3c(c(N(C)CC(=O)NC(C)(C)C)n2)CCC3)c1"
  pEC50: 8.3
- molecule: "COc1ccnc(-c2nc3c(c(N(C)CC(=O)NC4(C)CCOC4)n2)CCC3)c1 (centres unmarked)"
  pEC50: 6.8
- molecule: "CNCCCc1ccnc(-c2nc3c(c(N(C)CC(=O)NC(C)(C)C)n2)CCC3)c1"
  pEC50: 7.3
- molecule: "Cc1cccc(NC(=O)CN(C)c2nc(-c3cc(OCCO)ccn3)nc3c2CCC3)c1"
  pEC50: 8.1
- molecule: "COc1ccnc(-c2nc3c(c(N(C)CC(=O)NC4CCOC4)n2)CCC3)c1 (centres unmarked)"
  pEC50: 7.4
- molecule: "CN(Cc1ccccn1)c1nc(-c2ccccn2)nc2c1CCC2"
  pEC50: 6.8
- molecule: "O=C(CNc1nc(-c2ccccn2)nc2c1CCC2)Nc1ccccc1F"
  pEC50: 6.5
- molecule: "C[C@H](C(=O)Nc1ccnnc1)N(C)c1nc(-c2cc3ccccc3cn2)nc2c1CCC2"
  pEC50: 7.8
- molecule: "CCC(C)(O)COc1ccnc(-c2nc3c(c(N(C)CC(=O)NC(C)(C)C)n2)CCC3)c1 (stereo in doubt)"
  pEC50: 8.2
- molecule: "COc1ccnc(-c2nc3c(c(N(C)CC(=O)N[C@H]4CCC[C@@H]4O)n2)CCC3)c1 (stereo in doubt)"
  pEC50: 6.8
- molecule: "CN(CC(=O)Nc1cccc(F)c1)c1nc(-c2cc(OCC(C)(C)O)ccn2)nc2c1CCC2"
  pEC50: 8.3
- molecule: "COc1cccc(N2CCCN(c3nc(-c4ccccn4)nc4c3CCC4)CC2)c1"
  pEC50: 6.4
- molecule: "Cc1ccnc(-c2nc3c(c(N(C)CC(=O)NC4CCCC4)n2)CCC3)c1"
  pEC50: 7.8
- molecule: "CN(CC(=O)NC1(C(F)(F)F)CC1)c1nc(-c2cc(OCC(C)(C)O)ccn2)nc2c1CCC2"
  pEC50: 7.4
- molecule: "CN(CC(=O)NC1(C)CCCC1)c1nc(-c2cc(OCCO)ccn2)nc2c1CCC2"
  pEC50: 7.7
- molecule: "CC(C(=O)NC(C)(C)C)N(c1ccccc1)c1nc(-c2ccccn2)nc2c1CCC2 (centres unmarked)"
  pEC50: 6.7
- molecule: "COc1cccc(NC(=O)[C@@H](C)N(C)c2nc(-c3cn(C)cn3)nc3c2CCC3)c1"
  pEC50: 7.8
- molecule: "COc1ccnc(-c2nc3c(c(N(C)CC(=O)N[C@H]4CCOC4)n2)CCC3)c1"
  pEC50: 7.5
- molecule: "COc1ccnc(-c2nc3c(c(N(C)CC(=O)Nc4ccn(C)c(=O)c4)n2)CCC3)c1"
  pEC50: 7.2
- molecule: "Cc1ccc(NC(=O)CN(C)c2nc(-c3cc(OCCO)ccn3)nc3c2C(C)(C)CC3)cn1"
  pEC50: 8.3
- molecule: "[2H]C([2H])([2H])N(CCOc1ccnc(-c2nc3c(c(N(C)CC(=O)NC(C)(C)C)n2)CCC3)c1)C([2H])([2H])[2H]"
  pEC50: 7.6
- molecule: "COc1ccc(NC(=O)CN(C)c2nc(-c3cc(O[C@@H]4CCOC4)ccn3)nc3c2CCC3)cn1"
  pEC50: 7.6
